Cited source: patent US10040781B2

Target: TBK1 (Homo sapiens (Human), UniProt Q9UHD2)
Sequence (Q9UHD2 whole entry): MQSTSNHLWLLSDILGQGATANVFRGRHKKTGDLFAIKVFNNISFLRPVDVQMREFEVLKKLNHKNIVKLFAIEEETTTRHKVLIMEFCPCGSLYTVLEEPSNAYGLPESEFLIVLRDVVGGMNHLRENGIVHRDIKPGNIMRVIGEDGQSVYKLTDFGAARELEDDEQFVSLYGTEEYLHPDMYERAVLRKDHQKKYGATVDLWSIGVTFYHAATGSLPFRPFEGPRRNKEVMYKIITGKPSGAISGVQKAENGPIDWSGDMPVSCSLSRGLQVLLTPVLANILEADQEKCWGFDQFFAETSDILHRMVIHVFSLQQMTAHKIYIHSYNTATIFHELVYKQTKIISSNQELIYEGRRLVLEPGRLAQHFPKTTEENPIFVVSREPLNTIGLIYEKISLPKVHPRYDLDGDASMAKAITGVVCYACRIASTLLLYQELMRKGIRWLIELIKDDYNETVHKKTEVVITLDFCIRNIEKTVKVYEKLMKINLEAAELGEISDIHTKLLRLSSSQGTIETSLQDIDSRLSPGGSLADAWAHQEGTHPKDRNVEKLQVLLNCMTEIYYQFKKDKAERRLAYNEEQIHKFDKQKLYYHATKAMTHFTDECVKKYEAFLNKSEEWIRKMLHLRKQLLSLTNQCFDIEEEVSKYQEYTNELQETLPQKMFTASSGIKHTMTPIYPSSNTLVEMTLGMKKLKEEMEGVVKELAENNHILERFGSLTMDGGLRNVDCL
Assay: TBK1 TR-FRET enzymatic assay;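 also: phosphorylation of a biotinylated Ser/Thr peptide by purified full-length recombinant TBK1, read by TR-FRET after 240 min at 25 °C, IC50 is the geometric mean of at least four runs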
Would you mind telling me the reported pIC50 of each entry?
In textbook form, pIC50 equals minus log to base ten of the concentration in mol/L.

Qu. Any idea what its pIC50 is? The compound is Cn1ccc(C(=O)N2CCC(Oc3ccc(-c4ncnc(Nc5ccc(N6CCN(C7COC7)CC6)cc5)n4)cc3C#N)CC2)cc1=O
Ans. 7.16

Qu. Given the entry C[C@H](O)C(=O)N1CCCC(Oc2ccc(-c3ncnc(Nc4ccc(N5CCN(C6COC6)CC5)cc4)n3)cc2C#N)CC1 (stereo partly drawn) , report its measured pIC50.
Ans. 7.77

Qu. Which measured pIC50 value corresponds to C[C@H](O)C(=O)N1CC[C@H](Oc2ccc(-c3ncnc(Nc4ccc(N5CCN(C6COC6)CC5)cc4)n3)cc2C#N)C[C@@H]1C ?
Ans. 8.00

---

Field: pIC50. Provide a value for each of the compounds that follow.
Molecular target: IKKε (Homo sapiens (Human), UniProt Q14164)
Sequence (Q14164 whole entry): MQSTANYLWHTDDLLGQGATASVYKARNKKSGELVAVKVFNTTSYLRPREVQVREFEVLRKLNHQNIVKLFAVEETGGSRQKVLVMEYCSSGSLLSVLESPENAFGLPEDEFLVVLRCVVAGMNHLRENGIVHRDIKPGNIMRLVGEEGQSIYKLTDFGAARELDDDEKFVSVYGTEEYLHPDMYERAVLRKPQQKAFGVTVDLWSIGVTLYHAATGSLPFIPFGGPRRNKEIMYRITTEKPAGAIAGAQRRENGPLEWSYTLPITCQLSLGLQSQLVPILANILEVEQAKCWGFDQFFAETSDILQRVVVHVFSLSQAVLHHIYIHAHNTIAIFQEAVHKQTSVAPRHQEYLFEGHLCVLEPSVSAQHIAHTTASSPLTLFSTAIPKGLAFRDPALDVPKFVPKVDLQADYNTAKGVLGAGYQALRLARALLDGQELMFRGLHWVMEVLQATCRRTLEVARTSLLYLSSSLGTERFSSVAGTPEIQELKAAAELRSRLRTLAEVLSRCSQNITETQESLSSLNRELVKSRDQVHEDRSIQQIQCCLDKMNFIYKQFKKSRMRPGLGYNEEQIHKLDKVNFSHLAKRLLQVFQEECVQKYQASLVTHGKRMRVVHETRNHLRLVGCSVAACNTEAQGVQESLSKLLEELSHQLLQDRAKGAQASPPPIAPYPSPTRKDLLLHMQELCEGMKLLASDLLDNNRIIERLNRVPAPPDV
Test: IKKε TR-FRET enzymatic assay
Assay type: biochemical
Conditions: TR-FRET, 2×Km ATP; geometric mean of minimum four determinations; read-out: IKKe IC50
Please note pIC50 is a logarithmic value: minus log10 of concentration in mol/L. Answer with that number alone.

Qu. Fill in: pIC50 of C[C@H](O)C(=O)N1CC[C@H](Oc2ccc(-c3ncnc(Nc4cccc(C(C)(C)O)c4)n3)cc2C#N)[C@H](F)C1 [Example 486] is ___
Ans. 8.30

Qu. Look up pIC50 for this compound: N#Cc1cc(-c2ncnc(Nc3ccc(N4CCOCC4)cc3F)n2)ccc1O[C@H]1CCN(C(=O)[C@@H](O)CO)C[C@H]1F [Example 556]
Ans. 8.30

Qu. Which pIC50 is reported for this compound? CN1CC(Oc2ccc(-c3ncnc(Nc4ccc(N5CCN(C6COC6)CC5)cc4)n3)cc2C#N)CNC1=O (stereo not shown) [Example 421]
Ans. 6.81

Qu. Returns the measured pIC50 for the input compound. Input: Cc1cc(Nc2ncnc(-c3ccc(O[C@H]4CCN(C(=O)CCO)C[C@H]4F)c(C#N)c3)n2)ccc1N1CCN(C2COC2)CC1 [Example 533]
Ans. 8.15

---

Biological target: IKKε (Homo sapiens (Human))
Assay: IKKε TR-FRET enzymatic assay
Format: biochemical
Details: read-out: IKKe IC50
For each entry below, report its IC50 value.
I only need the number, in nM, no unit after it.

Qu. What value of measured IC50 is listed for N#Cc1cc(-c2ncnc(Nc3ccc(N4CCN(C5COC5)CC4)cc3)n2)ccc1N1CCC2(COC2)C1 ?
Ans. 20

Qu. Query (molecule): C[C@H](O)C(=O)N1CC[C@H](Oc2ccc(-c3ncnc(Nc4ccc(N5CCN(C6CCOCC6)CC5)cc4)n3)cc2C#N)[C@H](F)C1 ; field requested: IC50
Ans. 1

Qu. Entry C[C@H](O)C(=O)N1CC[C@H](Oc2ccc(-c3ncnc(Nc4ccc(N5CCC6(CC5)COC6)cc4)n3)cc2C#N)[C@H](F)C1 has what IC50?
Ans. 2

Qu. Give its IC50 value. Item: N#Cc1cc(-c2ncnc(Nc3ccc(N4CCN(C5COC5)CC4)cc3)n2)ccc1OC1COC1
Ans. 101

Qu. What measured IC50 goes with N#Cc1cc(-c2ncnc(Nc3ccc(N4CCN(C5COC5)CC4)cc3)n2)ccc1O[C@@H]1CCN(C(=O)C2COC2)C1 ?
Ans. 197

Qu. Item N#Cc1cc(-c2ncnc(Nc3ccc(N4CCN(C5COC5)CC4)cc3)n2)ccc1O[C@H]1CCN(C(=O)c2[nH]ncc2N)C[C@H]1F has what recorded IC50?
Ans. 9

Qu. I have this molecule here, C[C@H]1CN(C2COC2)CCN1c1ccc(Nc2ncnc(-c3ccc(O[C@H]4CCN(C(=O)CC#N)CC4(F)F)c(C#N)c3)n2)cc1 , and I need its recorded IC50.
Ans. 2

Qu. Entry under review: C[C@H]1CN(C(=O)CO)C[C@@H]1Oc1ccc(-c2ncnc(Nc3ccc(N4CCN(C5COC5)CC4)cc3)n2)cc1C#N . Reported IC50?
Ans. 30

Qu. IC50 for N#Cc1cc(-c2ncnc(Nc3ccc(N4CCN(C5COC5)CC4)cc3)n2)ccc1O[C@@H]1CCC(=O)NC1 ?
Ans. 6

Qu. Query: IC50; subject: N#Cc1cc(-c2ncnc(Nc3ccc(N4CCN(C5COC5)CC4)c(C#N)c3)n2)ccc1OC1CCOCC1
Ans. 6

Qu. I am curious: what IC50 value has been reported for C[C@H](O)C(=O)N1CC[C@H](Oc2ccc(-c3ncnc(Nc4ccc(N5CCN(C6COC6)C[C@@H]5C)cc4)n3)cc2C#N)[C@H](F)C1 ?
Ans. 2

Qu. # lookup: IC50 of N#Cc1cc(-c2ncnc(Nc3ccc(N4CCN(C(=O)CO)CC4)cc3)n2)ccc1OC1CCOCC1
Ans. 5

Qu. Which IC50 is listed for C[C@H](O)C(=O)N1CC[C@H](Oc2ccc(-c3ncnc(Nc4ccc(N5CCO[C@@H](CO)C5)cc4)n3)cc2C#N)[C@H](F)C1 ?
Ans. 1
